- tested-system: T1, IGF-IR-Fc (human, UniProt P08069 31-932)
- T1 construct: range 1-932; Made in house by transient transfection, captured on Protein A on CM5 chips for kinetic analysis; also called human IGF-IR-Fc fusion protein; recombinant, immobilized IGF-IR (BIAcore); not shown: hinge and constant regions of human IgG1
- assay-comment: SPR (BIAcore); IGF-IR-Fc captured on Protein A, clone in solution
The reader will find reported pKd values listed item by item below.
pKd is defined as minus the log10 of a concentration measured in mol/L.

>>> readout_value("353F10 (designed binder, Optimized derivative of 218C04) VSDVPRDLEVVAATPTSLLISWPTHYKVARYYRITYGETGGNSPVQEFTVPKHTYTATISGLKPGVDYTITVYAVTTTKGLRHYGPISINYRTHHHHHH")
10.25
>>> readout_value("354A10 (designed binder, Optimized derivative of 218C04) VSDVPRDLEVVAATPTSLLISWSNRLVVKRYYRITYGETGGNSPVQEFTVPHQMKTATISGLKPGVDYTITVYAVTPGGYSGRNYGPISINYRTHHHHHH")
9.80
>>> readout_value("353H09 (designed binder, Optimized derivative of 218C04) VSDVPRDLEVVAATPTSLLISWSDKLKVQRYYRITYGETGGNSPVQEFTVPKHDRTATISGLKPGVDYTITVYAVTKMRDYRPISINYRTHHHHHH")
10.24

Ask | Entry 339A01 (designed binder, Optimized derivative of 218C04) VSDVPRDLEVVAATPTSLLISWSTALKVQRYYRITYGETGGNSPVQEFTVPKHSHTATISGLKPGVDYTITVYAVTKMRDYRPISINYRTHHHHHH : reported pKd = ?
Reply | 9.25

Ask | Entry 338A06 (designed binder, Optimized derivative of 218C04; also called clone 338A06; parent clone 338A06) VSDVPRDLEVVAATPTSLLISWSARLKVARYYRITYGETGGNSPVQEFTVPKNVYTATISGLKPGVDYTITVYAVTKMRDYRPISINYRTHHHHHH : reported pKd = ?
Reply | 10.16

Ask | Entry 338A05 (designed binder, Optimized derivative of 218C04) VSDVPRDLEVVAATPTSLLISWSDSLKVSRYYRITYGETGGNSPVQEFTVPKQYHTATISGLKPGVDYTITVYAVTPSNIIGRHYGPISINYRTHHHHHH : reported pKd = ?
Reply | 9.58
